These entries and their values trace back to PubChem BioAssay (NCI).

Assay: NCI Yeast Anticancer Drug Screen. Data for the mlh1 rad18 strain (AID 175)
Conditions: S. cerevisiae mlh1 rad18 strain growth inhibition; at 50.0 µM; stronger effect = higher value
About 79,000 compounds went through this panel and 15% of them were active in at least one assay; those are over-represented in the sample as a whole.
List of growth inhibition values.
// units = %; emit number, no label

- compound: "CSc1ccc(NC(=O)Nc2cc(C(C)C)ccc2C)cc1"
  growth inhibition (%): 28.2
- compound: "NC(CCCCn1nnc2c(=O)[nH]cnc21)C(=O)O (stereo unspecified)"
  growth inhibition (%): -15.6
- compound: "CN/N=C(\\C(=O)Nc1ccc([N+](=O)[O-])cc1[N+](=O)[O-])C1NC(=O)NC1=O (stereo unspecified)"
  growth inhibition (%): -10.9
- compound: "COc1ccc([N+](=O)[O-])cc1OC"
  growth inhibition (%): 16.1
- compound: "Cc1ccc(NC(=O)CCc2cc(C(C)(C)C)nc(=S)[nH]2)cc1C"
  growth inhibition (%): -34

Would you kindly look at the next entry?
Data request, read-out growth inhibition, for CC(=O)NCC(=O)c1ccccc1
9.5

* * *

List of growth inhibition values.
Assay: NCI Yeast Anticancer Drug Screen. Data for the mec2-1 strain (AID 157)
Conditions: S. cerevisiae mec2-1 strain, at 50.0 µM, stronger effect = higher value
The panel holds about 79,000 compounds, 15% with a hit somewhere; the sample as a whole holds those more often.
// units = %; emit number, no label

- compound: "CC1(C)OC2C(CO)OC(n3cnc4c(=S)nc(N)[nH]c43)C2O1 (stereo not drawn)"
  unit of measure: "%"
  observed measurement: 12.8

Would you kindly look at the next entry?
Data request, read-out growth inhibition, for COC(=O)C1CSCN1 (stereo not drawn)
-4.3

* * *

List of growth inhibition values.
Experiment: NCI Yeast Anticancer Drug Screen. Data for the sgs1 mgt1 strain (AID 161);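 further: 0% = growth of cultures given vehicle only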
Details: S. cerevisiae sgs1 mgt1 strain, at 50.0 µM, stronger effect = higher value
Description: Growth inhibition of yeast strains with defined genetic alterations is measured as a screen for potential anti-cancer activity. Selected strains with alterations in DNA damage repair or cell cycle control were exposed to compounds and growth inhibition was measured relative to vehicle treated controls. The strain used in this assay is sgs1 mgt1
Compounds without any hit were thinned out: in the full panel of roughly 79,000, 15% have a hit.
// units = %; emit number, no label

- compound: "O=S(=O)(N1CCCCC1)N1CCCCC1"
  unit of measure: "%"
  observed measurement: 0.85

Data request, read-out growth inhibition, for C=C(CC)C(=O)c1ccc(OCC(=O)O)c(Cl)c1Cl
16.6

Data request, read-out growth inhibition, for CC(=O)[O-].[Mn+3].[O-]c1ccccc1C=NCCNCCN=Cc1ccccc1[O-]
49.6

Data request, read-out growth inhibition, for Cc1ccc(N(C(=O)CC(=O)NN)C(=O)c2ccccc2Cl)cc1
-8.25

Data request, read-out growth inhibition, for OC(c1cccc(Cl)c1)C(Cl)Cl (stereo unspecified)
-22

Data request, read-out growth inhibition, for CCOC(=O)N1c2ccccc2S(=O)(=O)c2ccccc21
-26.4

* * *

Test: NCI Yeast Anticancer Drug Screen. Data for the cln2 rad14 strain (AID 165);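 further: 0% = growth equal to vehicle treated cultures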
Settings: S. cerevisiae cln2 rad14 strain, at 50.0 µM, stronger effect = higher value
Compounds without any hit were thinned out: in the full panel of roughly 79,000, 15% have a hit.
reported property: growth inhibition (%)
// units = %; emit number, no label

- molecule: "CCOC(=O)C[C@@]1(C)C(=O)O[C@H](c2ccccc2)N1C(=O)c1ccccc1"
  observed measurement: 29.9
- molecule: "CNC(=S)N/N=C(C)\\C=N/Nc1ccc(Br)cc1"
  observed measurement: -18.9
- molecule: "O=C(C[n+]1ccccc1Cc1ccccc1)c1ccccc1"
  observed measurement: -11.6
- molecule: "COC1=C(c2c[nH]c3ccc(CC=C(C)C)cc23)C(=O)C(OC)=C(c2c[nH]c3ccc(CC=C(C)C)cc23)C1=O"
  observed measurement: 19.4
- molecule: "COc1cc(OC)c2cnc(Cl)cc2c1"
  observed measurement: -41.4
- molecule: "CCCCCCC#CC(=O)OCCCC"
  observed measurement: -20
- molecule: "O=C(O)c1cccc(NC(=O)C(F)(F)F)c1"
  observed measurement: -29.4
- molecule: "N#CC1=CN(Cc2ccccc2)C(c2ccccc2)C=C1 (stereo not drawn)"
  observed measurement: 4.65

Data request, read-out growth inhibition, for Cc1ccnc(NC(NC(=O)c2ccccc2)(C(F)(F)F)C(F)(F)F)c1
23.2

Data request, read-out growth inhibition, for Cn1c2ccccc2c2nc3ccccc3c(Cl)c21
-12.9

Data request, read-out growth inhibition, for C=C1CCCCCCCCC/C=C/1SCCCSC
-17.9

Data request, read-out growth inhibition, for CCOc1ccc(Cc2ccc3c(c2)OCO3)cc1C
-13.2

Data request, read-out growth inhibition, for O=C1CCCc2ccc3c(c21)CC1(Cc2ccccc2C1)C3
-6

Data request, read-out growth inhibition, for Cc1cn(CCCSCC2OC3OC4C(CO)OC(OC5C(CO)OC(OC6C(CO)OC(OC7C(CO)OC(OC8C(CO)OC(OC9C(CO)OC(OC2C(O)C3O)C(O)C9O)C(O)C8O)C(O)C7O)C(O)C6O)C(O)C5O)C(O)C4O)c(=O)[nH]c1=O (stereo not drawn)
0

Data request, read-out growth inhibition, for CCOc1cc(/C=N/NC(=O)N(c2ccccc2)c2ccccc2)ccc1O
12.8

Data request, read-out growth inhibition, for COC(=O)c1nnn(CCc2c[nH]c3ccccc23)c1C(=O)OC
-11.6

Data request, read-out growth inhibition, for N=C(N)c1ccc(NC(=O)c2ccc(C(=O)Nc3ccc(C(=N)N)cc3)c(N)c2)cc1
-7.85

* * *

Assay: NCI Yeast Anticancer Drug Screen. Data for the mlh1 rad18 strain (AID 175)
Details: S. cerevisiae mlh1 rad18 strain growth inhibition; at 50.0 µM; stronger effect = higher value
The panel holds about 79,000 compounds, 15% with a hit somewhere; the sample as a whole holds those more often. Active and inactive are the calls of the source. Rule as the data show it: active = growth inhibition above about 70%; inactive = the rest.
reported property: growth inhibition

Examples with their reported growth inhibition follow.
- compound: "O=[N+]([O-])c1cccc2c1ccc1nonc12"
  growth inhibition: "20.5% (inactive)"
- compound: "O=c1nc(NCC23CC4CC(CC(C4)C2)C3)ccn1C1OC(CO)C(O)C1O (configuration not stated)"
  growth inhibition: "-6.5% (inactive)"
- compound: "CCCCCCCc1cc(=O)[nH]c(=S)[nH]1"
  growth inhibition: "-5.4% (inactive)"
- compound: "CCC(CO)N1CNC(=S)NC1 (configuration not stated)"
  growth inhibition: "0.3% (inactive)"
- compound: "O=C(c1ccc(Cl)cc1)C(C(c1ccccc1[N+](=O)[O-])N1CCCCC1)N1CCCCC1 (configuration not stated)"
  growth inhibition: "2.15% (inactive)"

Data request, read-out growth inhibition, for CC(=O)N[N+](C)(C)C
7.9% (inactive)

Data request, read-out growth inhibition, for CC(C)(O)c1cc2nc3ccccc3nc2n1CCO
-14.4% (inactive)

Data request, read-out growth inhibition, for C1=C(c2ccccc2)CCCC1
4.45% (inactive)

* * *

List of growth inhibition values.
Assay: NCI Yeast Anticancer Drug Screen. Data for the mlh1 rad18 strain (AID 175)
Conditions: S. cerevisiae mlh1 rad18 strain growth inhibition; at 50.0 µM; stronger effect = higher value
Protocol: Growth inhibition of yeast strains with defined genetic alterations is measured as a screen for potential anti-cancer activity. Selected strains with alterations in DNA damage repair or cell cycle control were exposed to compounds and growth inhibition was measured relative to vehicle treated controls. The strain used in this assay is mlh1 rad18
Compounds without any hit were thinned out: in the full panel of roughly 79,000, 15% have a hit.
// units = %; emit number, no label

Examples with their reported growth inhibition follow.
- compound: "COC(=O)CN(c1ccc(C#N)c2ccccc12)S(=O)(=O)c1ccccc1"
  reported property: "growth inhibition"
  unit of measure: "%"
  observed measurement: 1.45
- compound: "CSc1ccc(C(=C=C=C(c2ccc(SC)s2)c2ccc(SC)s2)c2ccc(SC)s2)s1"
  reported property: "growth inhibition"
  unit of measure: "%"
  observed measurement: -2.1
- compound: "Clc1cccc2[nH]ccc12"
  reported property: "growth inhibition"
  unit of measure: "%"
  observed measurement: -3.9
- compound: "F[B-](F)(F)[NH2+]c1ccc(-c2ccc([NH2+][B-](F)(F)F)c(Cl)c2)cc1Cl"
  reported property: "growth inhibition"
  unit of measure: "%"
  observed measurement: 10.7
- compound: "Nc1nc(-c2ccc(F)cc2)cc(-c2cc(-c3ccc(F)cc3)nc(N)n2)n1"
  reported property: "growth inhibition"
  unit of measure: "%"
  observed measurement: 2.15

Would you kindly look at the next entry?
Data request, read-out growth inhibition, for CCN(CC)CCNC(=O)c1ccc(NCN2C(=O)NC(c3ccccc3)(c3ccccc3)C2=O)cc1
50.8

* * *

List of growth inhibition values.
Assay: NCI Yeast Anticancer Drug Screen. Data for the bub3 strain (AID 167)
Details: S. cerevisiae bub3 mutant strain, at 50.0 µM, stronger effect = higher value
This is part of a sample that, as a whole, favours compounds with a hit. Of some 79,000 tested, about 15% had one in any assay.
// units = %; emit number, no label

Examples with their reported growth inhibition follow.
- molecule: "CCOC(=O)C1(C)CCCCC1=O (configuration not stated)"
  unit of measure: "%"
  growth inhibition: 5.9
- molecule: "Cc1cc2nc3c(=O)[nH]c(=O)nc-3n(CC(O)C(O)C(O)C(O)CO)c2cc1C (configuration not stated)"
  unit of measure: "%"
  growth inhibition: -7.7
- molecule: "CN(C)C(=N)N"
  unit of measure: "%"
  growth inhibition: -0.7
- molecule: "[N-]=[N+]=C(C(=O)N1CCCC1=O)S(=O)(=O)c1ccccc1"
  unit of measure: "%"
  growth inhibition: -14.4
- molecule: "Nc1cccc(NC(=O)c2cccc(N)c2)c1"
  unit of measure: "%"
  growth inhibition: 11.4
- molecule: "COC(=O)c1nc(=S)[nH]c(C(=O)OC)c1C(=O)/C=C/c1ccccc1"
  unit of measure: "%"
  growth inhibition: -1.75
- molecule: "O=C(NC(=O)c1ccccc1[N+](=O)[O-])Nc1ccc(Oc2ncc(Cl)cn2)c(C(F)(F)F)c1"
  unit of measure: "%"
  growth inhibition: 0.5
- molecule: "COc1ccc(Cc2cc(OC)c(OC)c(OC)c2)cc1"
  unit of measure: "%"
  growth inhibition: 31.8

Data request, read-out growth inhibition, for NC(=O)c1cnn(CCO)c1N
2.85

Data request, read-out growth inhibition, for Cc1ccnc(N(C)CCN2CCCCC2)c1
12.4

Data request, read-out growth inhibition, for CC(=O)NC1CCC(Cc2ccccc2)CC1 (configuration not stated)
-22.3

Data request, read-out growth inhibition, for O=C(O)c1ccc2ncc(-c3ccccc3)nc2c1
-7.4
